# Tested on: 874868-142-R-J2-PDC complex spheroids, growth % test/control;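 further: spheroids exposed to the compounds for 7 days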
# method_summary: Anticancer human tumor 874868-142-R-J2-PDC patient-derived head and neck squamous carcinoma cell line growth inhibition [CLK]; active means viability on the fitted dose curve at most 10% of control; inactive means the rest
# experimental_setup: second compound 0.1 µM; first compound 1 µM
Output constraint: value belongs to YES for active, NO for inactive

{"compound": "Nc1ccn(C2OC(CO)C(O)C2(F)F)c(=O)n1 (stereo unspecified) + CN1CCN(c2cc(C(=O)Nc3cc4cc(-c5cnn(C)c5)ccc4cn3)ccn2)CC1", "assigned_class": "NO"}
{"compound": "COC1C=CCC(C)C(C)S(=O)(=O)NC(=O)c2ccc3c(c2)N(CC2CCC21)CC1(CCCc2cc(Cl)ccc21)CO3 (stereo unspecified) + CN1CCN(c2cc(C(=O)Nc3cc4cc(-c5cnn(C)c5)ccc4cn3)ccn2)CC1", "assigned_class": "NO"}

(Q) Hello, I am checking results. What call was entered for O=C(c1cc(Cc2n[nH]c(=O)c3ccccc23)ccc1F)N1CCN(C(=O)C2CC2)CC1 + CNC(=O)c1ccc(Nc2nc(OC3CCCC3)c3c(-c4ccc5nc(C)oc5c4)c[nH]c3n2)c(OC)c1 ?
(A) NO

(Q) Param item: Nc1ccn(C2OC(CO)C(O)C2(F)F)c(=O)n1 (stereo unspecified) + CNC(=O)c1ccc(Nc2nc(OC3CCCC3)c3c(-c4ccc5nc(C)oc5c4)c[nH]c3n2)c(OC)c1
(A) NO

(Q) Param item: COc1cccc2c1C(=O)c1c(O)c3c(c(O)c1C2=O)CC(O)(C(=O)CO)CC3OC1CC(N)C(O)C(C)O1 (stereo unspecified) + CNC(=O)c1ccc(Nc2nc(OC3CCCC3)c3c(-c4ccc5nc(C)oc5c4)c[nH]c3n2)c(OC)c1
(A) YES

(Q) Param item: CCN1CCN(Cc2ccc(Nc3ncc(F)c(-c4cc(F)c5nc(C)n(C(C)C)c5c4)n3)nc2)CC1 + CNC(=O)c1ccc(Nc2nc(OC3CCCC3)c3c(-c4ccc5nc(C)oc5c4)c[nH]c3n2)c(OC)c1
(A) NO
